Reference source for all entries: paper PMC9640980

biological target: hCB1R (Homo sapiens); construct: expressed in transfected cells; host or cells: CHO-K1 cell membranes; assay: [35S]GTPγS G protein coupling assay, membranes of CHO-K1 cells overexpressing hCB1R; format: biochemical; details: absence of orthosteric agonist, Figure 4B
Sequence (P21554 whole entry): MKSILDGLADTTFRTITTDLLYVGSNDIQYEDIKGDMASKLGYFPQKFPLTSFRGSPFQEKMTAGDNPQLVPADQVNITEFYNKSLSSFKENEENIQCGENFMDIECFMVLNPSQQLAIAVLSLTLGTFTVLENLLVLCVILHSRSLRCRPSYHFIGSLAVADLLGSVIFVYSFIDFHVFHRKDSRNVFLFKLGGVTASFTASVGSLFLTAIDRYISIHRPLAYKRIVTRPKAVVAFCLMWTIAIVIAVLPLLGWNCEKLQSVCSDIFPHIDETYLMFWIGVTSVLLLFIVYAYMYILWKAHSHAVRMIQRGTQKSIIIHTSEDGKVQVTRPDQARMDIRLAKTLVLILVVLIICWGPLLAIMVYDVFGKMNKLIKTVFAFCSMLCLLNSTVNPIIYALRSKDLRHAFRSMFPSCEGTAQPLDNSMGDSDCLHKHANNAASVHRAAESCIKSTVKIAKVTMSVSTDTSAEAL
# Emax ± S.E.M., [35S]GTPγS binding, compound alone values compiled below
parameter: Emax ± S.E.M., [35S]GTPγS binding, compound alone

compound	measured
O=[N+]([O-])CC(c1ccccc1F)c1c(-c2cccc(F)c2)[nH]c2cc(F)ccc12 (stereo not shown)	38 ± 3.1 % stimulation above baseline
O=[N+]([O-])C[C@@H](c1ccccc1F)c1c(-c2cccc(F)c2)[nH]c2cc(F)ccc12	41 ± 4.2 % stimulation above baseline
O=[N+]([O-])CC(c1ccccc1F)c1c(-c2cccc(F)c2)[nH]c2c(F)cccc12 (stereo not shown)	29 ± 2.6 % stimulation above baseline
O=[N+]([O-])C[C@@H](c1ccccc1F)c1c(-c2cccc(F)c2)[nH]c2c(F)cccc12	34 ± 2.3 % stimulation above baseline

====

target: hCB1R (Homo sapiens); construct: expressed in transfected cells; host or cells: CHO-K1 cell membranes; assay: [35S]GTPγS G protein coupling assay, membranes of CHO-K1 cells overexpressing hCB1R; format: biochemical; conditions: absence of orthosteric agonist, value (95% CI), Figure 4B; read-out: EC50 (nM) 95% C.I., [35S]GTPγS binding, compound alone
parameter: EC50 (nM)

compound	parameter	unit_of_measure	measured
O=[N+]([O-])C[C@@H](c1ccccc1F)c1c(-c2cccc(F)c2)[nH]c2cc(F)ccc12 [GAT1665]	EC50	nM	21
O=[N+]([O-])C[C@@H](c1ccccc1F)c1c(-c2cccc(F)c2)[nH]c2c(F)cccc12 [GAT1667]	EC50	nM	8
O=[N+]([O-])CC(c1ccccc1F)c1c(-c2cccc(F)c2)[nH]c2c(F)cccc12 (stereo not shown) [GAT1666]	EC50	nM	120
O=[N+]([O-])CC(c1ccccc1F)c1c(-c2cccc(F)c2)[nH]c2cc(F)ccc12 (stereo not shown) [GAT1664]	EC50	nM	110
